Biological target: T1, huNABA-avi-his (hybrid protein N-A1-B3-A2: N and A1 domains of human BGP, B3 domain of human CEA, A2 domain … (human, biotinylated at the avi tag (in vivo, co-transfected biotin ligase)))
T1 construct: also called NABA-avi-his reagent; biotinylated NABA
T1 chain: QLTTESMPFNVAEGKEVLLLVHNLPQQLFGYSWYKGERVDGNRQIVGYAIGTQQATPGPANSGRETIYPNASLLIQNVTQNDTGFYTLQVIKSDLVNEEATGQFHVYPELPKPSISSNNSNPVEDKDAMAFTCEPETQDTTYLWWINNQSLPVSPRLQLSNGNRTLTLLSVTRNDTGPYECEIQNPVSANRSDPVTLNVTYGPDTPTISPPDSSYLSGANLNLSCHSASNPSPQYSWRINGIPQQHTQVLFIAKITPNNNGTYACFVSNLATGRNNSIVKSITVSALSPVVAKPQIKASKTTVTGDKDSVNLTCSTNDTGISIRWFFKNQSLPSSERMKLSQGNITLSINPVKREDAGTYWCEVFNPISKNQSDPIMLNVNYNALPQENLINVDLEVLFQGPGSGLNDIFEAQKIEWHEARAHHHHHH
Assay: Biacore, Fab on immobilized NABA-avi-his; column Monovalent Affinity
Recorded koff values for a group of binders are listed next.
API: value field is a number in s⁻¹; no unit string.

[[record]]
binder = "anti-CEA Fab with affinity matured heavy chain CH7A H4E9 and affinity matured light chain CL1A pAC18 (Fab, V domains shown, Fab format, bacterially expressed; also called CH7A H4E9 and CL1A pAC18) VH: QVQLVQSGSELKKPGASVKVSCKASGYTFTEFGMNWVRQAPGQGLEWMGWINTKTGEATYIEEFKGRFVFSLDTSVSTAYLQISSLKAEDTAVYYCARWDFYDYVEAMDYWGQGTTVTVSS VL: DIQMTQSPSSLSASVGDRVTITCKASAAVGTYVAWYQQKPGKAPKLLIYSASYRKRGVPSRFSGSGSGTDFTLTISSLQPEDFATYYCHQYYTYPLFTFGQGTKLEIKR"
test_value = 0.0035


// koff lookup, key: anti-CEA Fab with unmatured heavy chain CH7A and affinity matured light chain CL1A pAC18 (Fab, V domains shown, Fab format, bacterially expressed; also called CH7A + CL1A pAC18) VH: QVQLVQSGSELKKPGASVKVSCKASGYTFTEFGMNWVRQAPGQGLEWMGWINTKTGEATYVEEFKGRFVFSLDTSVSTAYLQISSLKAEDTAVYYCARWDFYDYVEAMDYWGQGTTVTVSS VL: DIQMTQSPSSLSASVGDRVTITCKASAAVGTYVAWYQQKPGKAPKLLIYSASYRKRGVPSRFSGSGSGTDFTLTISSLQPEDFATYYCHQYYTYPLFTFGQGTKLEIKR
0.0207

Now try 3A1 (Fab, V domains shown, also called pAC21 (3A1); 3A1 wt/lc) VH: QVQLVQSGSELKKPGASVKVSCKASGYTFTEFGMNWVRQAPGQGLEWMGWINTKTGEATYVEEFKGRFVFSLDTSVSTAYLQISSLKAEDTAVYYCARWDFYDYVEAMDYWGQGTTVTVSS VL: DIQMTQSPSSLSASVGDRVTITCKASANVGNNVAWYQQKPGKAPKLLIYLASNRSGGVPSRFSGSGSGTDFTLTISSLQPEDFATYYCHQYYTYPLFTFGQGTKLEIK .
0.0117

Now try H3 Full (5) 8 (Fab, V domains shown) VH: QVQLVQSGSELKKPGASVKVSCKASGYTFTEFGMNWVRQAPGQGLEWMGWINTKTGEATYVEEFKGRFVFSLDTSVSTAYLQISSLKAEDTAVYYCARWDFFEYFKTMDYWGQGTTVTVSS VL: DIQMTQSPSSLSASVGDRVTITCKASQNVGTNVAWYQQKPGKAPKLLIYSASYRYSGVPSRFSGSGSGTDFTLTISSLQPEDFATYYCHQYYTYPLFTFGQGTKLEIK .
0.0014

Now try PR1A3 (Fab, V domains shown, also called PR1A3 wt/wt; pMS22) VH: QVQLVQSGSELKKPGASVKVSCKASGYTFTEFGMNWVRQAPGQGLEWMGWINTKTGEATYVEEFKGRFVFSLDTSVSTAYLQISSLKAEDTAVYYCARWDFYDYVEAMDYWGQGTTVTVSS VL: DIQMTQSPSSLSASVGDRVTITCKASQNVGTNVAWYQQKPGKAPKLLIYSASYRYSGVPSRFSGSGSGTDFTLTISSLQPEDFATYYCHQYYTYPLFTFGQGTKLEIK .
0.0248

Value source: patent US20230365711A1
